System: IL-17A-induced G-CSF production in human normal keratinocyte (NHK)
Assay: NHK assay: IL-17A-induced G-CSF production in normal human keratinocytes
Format: cell-based
Conditions: Homo sapiens, Keratinocyte, 24 h, IL-17A 5 ng/mL, class of the average IC50 where tested more than once
Method: IL-17A acts directly on keratinocytes through binding to dimeric receptor IL-17RA/RC and drives the production of a number of inflammatory mediators known to be elevated in psoriasis lesional tissue. IL-17A small molecule inhibitors that block the IL-17A to interact with IL-17R would inhibit the IL-17A signaling in its targeted cells such as keratinocytes. The compound functional activity is evaluated for its impact on IL-17A-induced G-CSF production in human normal keratinocyte (NHK). […]
Catalogue of compounds with associated IC50

{"compound": "O=C(N[C@H](c1cn2ncc([C@@H](O)[C@H]3C[C@@H](C(F)(F)F)NC3=O)cc2n1)C1CCC(F)(F)CC1)c1nonc1C1CC1 (relative stereo) [Example 73]", "IC50": "0.4 to 4 µM"}
{"compound": "C[C@H]1CNC(=O)[C@H]1Cc1cnn2cc([C@@H](NC(=O)c3nonc3C3CC3)C3CCC(F)(F)CC3)nc2c1 (relative stereo) [Example 86]", "IC50": "> 4 µM"}
{"compound": "O=C(N[C@H](c1cn2ncc(C[C@]34CCC[C@@H](C3)NC4=O)cc2n1)C1CCC(F)(F)CC1)c1nonc1C1CC1 (relative stereo) [Example 12]", "IC50": "0.4 to 4 µM"}
{"compound": "Cc1nonc1C(=O)N[C@H](c1cn2ncc([C@@](C)(O)[C@@]3(C)C[C@@H](C(F)(F)F)NC3=O)cc2n1)C1CCC(F)(F)CC1 [Example 106]", "IC50": "< 0.4 µM"}
{"compound": "O=C(N[C@H](c1cn2ncc([C@H]3C[C@@]34C[C@@H](C(F)(F)F)NC4=O)cc2n1)C1CCC(F)(F)CC1)c1nonc1C1CC1 (relative stereo) [Example 41]", "IC50": "> 4 µM"}
{"compound": "CC(C)[C@@H]1C[C@@H](Cc2cnn3cc([C@@H](NC(=O)c4nonc4C4CC4)C4CCC(F)(F)CC4)nc3c2)C(=O)N1 (relative stereo) [Example 95]", "IC50": "> 4 µM"}
{"compound": "Cc1nonc1C(=O)N[C@H](c1cn2ncc(C[C@H]3CC[C@H](C(F)(F)F)NC3=O)cc2n1)C1CCC(F)(F)CC1 (relative stereo) [Example 46]", "IC50": "> 4 µM"}
{"compound": "O=C(N[C@H](c1cn2ncc(CC3CC4(COC4)NC3=O)cc2n1)C1CCC(F)(F)CC1)c1nonc1C1CC1 (stereo partly shown) [Example 98]", "IC50": "> 4 µM"}
{"compound": "O=C(N[C@H](c1cn2ncc(C[C@H]3C(=O)NCC[C@@H]3C(F)(F)F)cc2n1)C1CCC(F)(F)CC1)c1nonc1C1CC1 (relative stereo) [Example 4]", "IC50": "0.4 to 4 µM"}
{"compound": "C[C@H](c1cnn2cc([C@@H](NC(=O)c3nonc3C3CC3)C3CCC(F)(F)CC3)nc2c1)[C@@H]1C[C@@H](C(F)(F)F)NC1=O (relative stereo) [Example 81]", "IC50": "< 0.4 µM"}
{"compound": "O=C(N[C@H](c1cn2ncc([C@H](O)[C@H]3C[C@H](C(F)(F)F)NC3=O)cc2n1)C1CCC(F)(F)CC1)c1nonc1C1CC1 (relative stereo) [Example 63]", "IC50": "> 4 µM"}
{"compound": "O=C(N[C@H](c1cn2ncc(C[C@@H]3C(=O)NCC[C@@H]3C(F)(F)F)cc2n1)C1CCC(F)(F)CC1)c1nonc1C1CC1 (relative stereo) [Example 45]", "IC50": "> 4 µM"}
{"compound": "CC1(C)CNC(=O)C1Cc1cnn2cc([C@@H](NC(=O)c3nonc3C3CC3)C3CCC(F)(F)CC3)nc2c1 (single isomer, unassigned) [Example 15]", "IC50": "> 4 µM"}
{"compound": "Cc1nonc1C(=O)N[C@H](c1cn2ncc(CC3(CC#N)C[C@@H](C(F)(F)F)NC3=O)cc2n1)C1CCC(F)(F)CC1 (single isomer, unassigned) [Example 103]", "IC50": "< 0.4 µM"}
{"compound": "C[C@@H]1CNC(=O)[C@@H]1Cc1cnn2cc([C@@H](NC(=O)c3nonc3C3CC3)C3CCC(F)(F)CC3)nc2c1 (relative stereo) [Example 88]", "IC50": "> 4 µM"}
{"compound": "C[C@@H]1C[C@@H](Cc2cnn3cc([C@@H](NC(=O)c4nonc4C4CC4)C4CCC(F)(F)CC4)nc3c2)C(=O)N1 (relative stereo) [Example 84]", "IC50": "> 4 µM"}
{"compound": "CC(C)n1nccc1C(=O)N[C@H](c1cn2ncc(C[C@@H]3C[C@@H](C(F)(F)F)NC3=O)cc2n1)C1CCC(F)(F)CC1 [Example 52]", "IC50": "0.4 to 4 µM"}
{"compound": "CC1(C(=O)c2cnn3cc([C@@H](NC(=O)c4nonc4C4CC4)C4CCC(F)(F)CC4)nc3c2)C[C@@H](C(F)(F)F)NC1=O (mixture of isomers) [Example 102]", "IC50": "< 0.4 µM"}
{"compound": "O=C(N[C@H](c1cn2ncc(CC3C(=O)NCC3C(F)(F)F)cc2n1)C1CCC(F)(F)CC1)c1nonc1C1CC1 (single isomer, unassigned) [Example 50]", "IC50": "> 4 µM"}
{"compound": "O=C(N[C@H](c1cn2ncc(CC3CC(C(F)(F)F)CNC3=O)cc2n1)C1CCC(F)(F)CC1)c1nonc1C1CC1 (single isomer, unassigned) [Example 35]", "IC50": "0.4 to 4 µM"}
{"compound": "O=C(N[C@H](c1cn2ncc(CC3CC4(CC4)NC3=O)cc2n1)C1CCC(F)(F)CC1)c1nonc1C1CC1 (stereo partly shown) [Example 62]", "IC50": "> 4 µM"}
{"compound": "O=C(N[C@H](c1cn2ncc([C@@H](O)[C@@H]3C[C@H](C(F)(F)F)NC3=O)cc2n1)C1CCC(F)(F)CC1)c1nonc1C1CC1 (single isomer, unassigned) [Example 76]", "IC50": "0.4 to 4 µM"}
